Target entity: T1, human γc on cells (KHYG-1, Ramos, HPB-ALL, Jurkat, PBMC) (human) (UniProt P31785)
T1 sequence (looked up): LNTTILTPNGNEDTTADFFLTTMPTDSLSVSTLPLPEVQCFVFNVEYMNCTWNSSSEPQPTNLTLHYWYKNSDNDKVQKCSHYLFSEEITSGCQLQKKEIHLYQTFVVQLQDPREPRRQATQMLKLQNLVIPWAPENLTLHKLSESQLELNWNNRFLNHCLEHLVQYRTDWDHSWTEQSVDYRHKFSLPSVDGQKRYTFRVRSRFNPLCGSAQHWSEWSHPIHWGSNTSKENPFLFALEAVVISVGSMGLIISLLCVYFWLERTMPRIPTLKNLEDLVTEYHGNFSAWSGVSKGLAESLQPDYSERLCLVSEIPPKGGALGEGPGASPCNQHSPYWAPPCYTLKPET
Experiment description: cell-based or functional assay
Can you tell me p-STAT3 inhibition (%), IL-9 induced, Jurkat T cells, flow cytometry for the items I'm about to list?
Give a bare numeral; the unit % is implied.

Exam item: // query p-STAT3 inhibition (%), IL-9 induced, Jurkat T cells, flow cytometry value for entry SM-05I anti-γc ScFv (scFv, part only; not given: linker and E-tag, not shown: small tags and cut ends) scFv (part 1 of 2), part: QVQLQQSGAELAKPGASVKLSCKASGYTFTEYTMHWVKQSHGESLDWIGGIDPNTGGATYNQRFKGKATMTVDKSSSTAYMEFRSLTSEDSAVYYCARRRRYYGYALDNWGQGTSVTVSS scFv (part 2 of 2), part: DVLMTQTPLSLPVSLGDQASISCRSSQSIVHSNGNTYLEWYLQKPGQSPKLLIYKVSNRFSGVPDRFSGSGSGTDFTLKISRVEAEDLGVYYCFQDSHVPFTFGSGTKLEIKR
Marked response: 100

Exam item: Repeat with SM-05A anti-γc ScFv (scFv, part only; not given: linker and E-tag, not shown: small tags and cut ends) scFv (part 1 of 2), part: EVQLQQSGPELVKPGASVKISCKTSGYTFTEYTMHWVKQSHGKSLEWIGGIDPYNGGATYNQRFKGKATLTVDKSSSTAYMEFRSLTSEDSAVYYCARRRLYYGNALDYWGQGTSVTVSS scFv (part 2 of 2), part: DVLMTQTPLSLPVSLGDQASISCRSSQSLVHSNGNTYLHWYLQRPGQSPKLLIYKVSSRFSGVPDRFSGSGSGTDFTLKISRVEAEDLGVYFCSQTTHVPFTFGSGTKLEIKR
Marked response: 80.6
